Molecular target: EPHB1 (UniProt P54762)
Sequence (P54762 whole entry, looked up): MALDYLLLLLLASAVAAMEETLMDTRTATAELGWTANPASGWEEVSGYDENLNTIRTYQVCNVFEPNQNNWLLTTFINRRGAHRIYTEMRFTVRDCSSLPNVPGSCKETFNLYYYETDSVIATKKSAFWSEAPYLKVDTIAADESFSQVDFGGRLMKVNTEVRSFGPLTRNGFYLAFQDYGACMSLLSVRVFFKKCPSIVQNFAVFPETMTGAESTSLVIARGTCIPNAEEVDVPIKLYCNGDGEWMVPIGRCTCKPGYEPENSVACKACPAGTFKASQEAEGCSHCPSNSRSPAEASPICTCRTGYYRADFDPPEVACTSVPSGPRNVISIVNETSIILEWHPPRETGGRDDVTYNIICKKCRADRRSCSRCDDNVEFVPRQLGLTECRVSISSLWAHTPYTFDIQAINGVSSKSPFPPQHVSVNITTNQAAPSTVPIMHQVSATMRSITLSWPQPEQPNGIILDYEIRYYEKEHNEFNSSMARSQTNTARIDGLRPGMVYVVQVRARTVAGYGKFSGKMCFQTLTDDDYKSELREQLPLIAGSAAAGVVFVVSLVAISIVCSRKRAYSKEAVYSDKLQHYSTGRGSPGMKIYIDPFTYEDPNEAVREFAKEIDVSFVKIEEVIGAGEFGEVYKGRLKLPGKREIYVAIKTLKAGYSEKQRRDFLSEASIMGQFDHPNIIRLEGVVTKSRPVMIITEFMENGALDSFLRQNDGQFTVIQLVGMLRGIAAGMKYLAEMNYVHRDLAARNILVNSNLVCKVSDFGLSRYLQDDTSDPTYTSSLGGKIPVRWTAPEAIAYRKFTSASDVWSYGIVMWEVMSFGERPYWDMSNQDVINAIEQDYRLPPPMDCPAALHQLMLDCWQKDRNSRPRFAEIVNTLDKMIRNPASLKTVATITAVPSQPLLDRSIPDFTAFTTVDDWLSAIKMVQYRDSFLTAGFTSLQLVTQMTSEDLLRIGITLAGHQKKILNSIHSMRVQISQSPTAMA
Experiment: phosphorylation enrichment, bacterial display (enrichment ratio); higher = better substrate or ligand; peptides without Tyr show the background
Label scheme, based on phosphorylation enrichment: lo = under 0.6, mid = from 0.6 up to 0.7, hi = 0.7 and over

# sequence_content, label_value
records = [
    ("LDFNEYVRDLN [HPRT1_Y198_F199V_YF]", "hi"),
    ("EADRKYEEVAC [TPM3_Y163_R168C]", "mid"),
    ("TLRETYGEMAD [ALB_Y108]", "lo"),
    ("MCDSHYLESRS [CLK1_Y56]", "lo"),
    ("EGDGVYTLNDE [HP_Y125_N129D]", "mid"),
    ("NFFDTYIKTCL [IQGAP2_Y1445_YF]", "hi"),
    ("PNRILYGDFQQ [MYH7_Y715_R719Q]", "lo"),
    ("GCCSWYRGWAP [TIMP3_Y195_Y191C]", "lo"),
]

Sort HTVVSYAKVRA [CLOCK_Y378_E380K] into one of the categories.
hi

###

Target: c-Src SH2;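 further: peptide library displayed on the E. coli surface as eCPX fusions, selected cells deep-sequenced, score is each peptide's frequency after selection divided by its frequency in the input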
Test: SH2 binding enrichment of the phosphorylated peptide, bacterial display (enrichment ratio); higher = better substrate or ligand; peptides without Tyr show the background
Reported SH2 binding enrichment is given for each of the following sequences.
The response must contain the number and no unit.

# sequence_content, measurement_label, quantitative_result
records = [
    ("PLQKIYNFNVL [SLC4A1_Y553_T552I_YF]", "SH2 binding enrichment", 0.906),
]

// SH2 binding enrichment lookup, sequence = HNLDYYKMTTN [FGFR3_Y648_K650M] , result: 0.757

// SH2 binding enrichment lookup, sequence = RKLVDYDSARH [BIN1_Y150] , result: 0.387

// SH2 binding enrichment lookup, sequence = EREYKYDAHNY [OAT_Y50_G51D] , result: 0.703

// SH2 binding enrichment lookup, sequence = DDSNPYINVKL [MTHFD1_Y52_L51P] , result: 0.701

// SH2 binding enrichment lookup, sequence = RHPLDYLRQFP [NARS2_Y138_E137D_YF] , result: 0.519

###

Reported phosphorylation enrichment is given for each of the following sequences.
Molecular target: Hck (UniProt P08631)
Sequence (P08631 whole entry, looked up): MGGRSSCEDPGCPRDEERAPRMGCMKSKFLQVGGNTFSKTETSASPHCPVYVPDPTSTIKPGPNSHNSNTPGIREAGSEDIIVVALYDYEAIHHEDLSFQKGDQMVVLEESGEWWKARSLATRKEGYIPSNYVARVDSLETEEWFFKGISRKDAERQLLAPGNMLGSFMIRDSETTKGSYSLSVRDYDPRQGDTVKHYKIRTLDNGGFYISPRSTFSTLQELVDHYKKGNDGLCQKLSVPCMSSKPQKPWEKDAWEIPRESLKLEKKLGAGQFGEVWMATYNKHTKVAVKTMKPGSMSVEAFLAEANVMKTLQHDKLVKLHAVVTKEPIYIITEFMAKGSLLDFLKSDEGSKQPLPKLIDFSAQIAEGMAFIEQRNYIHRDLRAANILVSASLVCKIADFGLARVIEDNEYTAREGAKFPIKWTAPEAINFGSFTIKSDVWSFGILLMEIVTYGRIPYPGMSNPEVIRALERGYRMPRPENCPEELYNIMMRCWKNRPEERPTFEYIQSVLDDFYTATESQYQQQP
Assay: phosphorylation enrichment, bacterial display (enrichment ratio); higher = better substrate or ligand; peptides without Tyr show the background
The response must contain the number and no unit.

# sequence_content, quantitative_result
records = [
    ("RSRSSYTHSLN [MYCT1_Y116_G119S]", 0.495),
]

// phosphorylation enrichment lookup, sequence = STGSRYQPLAS [NCAPD2_Y1325] , result: 0.414

// phosphorylation enrichment lookup, sequence = MVTSGYKAKTI [EFR3A_Y447] , result: 0.322

// phosphorylation enrichment lookup, sequence = VTDGKYAFKPK [GTF2E2_Y137_I133T] , result: 0.459

// phosphorylation enrichment lookup, sequence = IPVNGYQPVPA [ROR2_Y824_V819I] , result: 0.513

// phosphorylation enrichment lookup, sequence = KPLMPSMRYSR [SMARCE1_Y73_Y73S] , result: 0.462

// phosphorylation enrichment lookup, sequence = QPSPSYDSSRG [TCF12_Y70] , result: 0.553

// phosphorylation enrichment lookup, sequence = DVCKNYAKAKD [ALB_Y343_E345K] , result: 0.439
